target.system: Ataxin-2 (Homo sapiens) (UniProt Q99700)
Sequence (Q99700 whole entry): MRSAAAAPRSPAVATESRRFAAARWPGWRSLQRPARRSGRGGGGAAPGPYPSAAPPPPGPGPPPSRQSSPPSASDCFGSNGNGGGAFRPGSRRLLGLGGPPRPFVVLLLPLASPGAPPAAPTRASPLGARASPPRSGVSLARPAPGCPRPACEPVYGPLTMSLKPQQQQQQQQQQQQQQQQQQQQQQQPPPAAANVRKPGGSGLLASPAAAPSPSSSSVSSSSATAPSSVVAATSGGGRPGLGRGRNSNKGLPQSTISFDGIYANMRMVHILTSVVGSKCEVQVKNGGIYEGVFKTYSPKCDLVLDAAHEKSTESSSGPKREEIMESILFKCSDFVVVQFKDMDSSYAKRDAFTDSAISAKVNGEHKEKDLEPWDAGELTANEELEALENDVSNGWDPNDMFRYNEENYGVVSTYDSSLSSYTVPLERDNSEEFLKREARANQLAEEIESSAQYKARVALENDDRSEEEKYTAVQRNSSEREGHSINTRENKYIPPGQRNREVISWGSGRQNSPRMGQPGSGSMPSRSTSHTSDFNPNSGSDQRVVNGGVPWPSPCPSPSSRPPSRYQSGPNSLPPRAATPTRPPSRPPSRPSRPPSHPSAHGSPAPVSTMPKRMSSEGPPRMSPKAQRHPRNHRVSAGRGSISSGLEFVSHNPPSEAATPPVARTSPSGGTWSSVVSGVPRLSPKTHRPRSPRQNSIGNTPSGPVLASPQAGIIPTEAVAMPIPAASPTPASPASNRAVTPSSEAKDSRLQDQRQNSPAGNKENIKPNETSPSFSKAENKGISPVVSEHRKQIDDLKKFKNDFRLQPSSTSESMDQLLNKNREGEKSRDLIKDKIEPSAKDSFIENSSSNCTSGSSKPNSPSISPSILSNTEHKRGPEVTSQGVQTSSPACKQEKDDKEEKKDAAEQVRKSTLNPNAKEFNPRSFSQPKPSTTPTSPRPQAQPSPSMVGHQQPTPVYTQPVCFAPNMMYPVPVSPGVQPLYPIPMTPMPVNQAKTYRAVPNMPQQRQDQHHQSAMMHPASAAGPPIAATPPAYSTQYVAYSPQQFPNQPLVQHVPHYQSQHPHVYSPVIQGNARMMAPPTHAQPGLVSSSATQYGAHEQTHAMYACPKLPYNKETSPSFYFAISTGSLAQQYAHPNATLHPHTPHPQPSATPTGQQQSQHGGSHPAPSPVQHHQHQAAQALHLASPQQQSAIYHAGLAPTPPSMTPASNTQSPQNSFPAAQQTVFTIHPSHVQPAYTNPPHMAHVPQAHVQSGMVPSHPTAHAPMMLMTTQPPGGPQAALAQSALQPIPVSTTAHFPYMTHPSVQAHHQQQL
test.summary: qHTS for Inhibitors of ATXN expression.
Type: functional
In all, about 400,000 compounds went through this assay and about 2,100 (0.53%) were called active. Another 14% or so got no clear call; they are omitted. The rule behind the calls is not given here. The sample as a whole holds a higher share of actives than the screen did.
Your response should consist of one outcome taken from active, inactive

Some entries whose results are on file:
CCCNC1=C(N(C(C)=O)c2cccc(F)c2)C(=O)c2ccccc2C1=O = active
COc1cc(OC)cc(C(=O)NCCCCNC(=O)c2cc(OC)cc(OC)c2)c1 = inactive
O=C(O)c1ccccc1-c1ccc(/C=C/c2cc(C(F)(F)F)nc(O)n2)o1 = inactive
O=C1OCCN1C(=O)[C@H]1[C@H](c2ccccc2)C(c2cccc(Cl)c2)=NN1c1ccc(Br)cc1 = inactive

Now turn to the next molecule.
# outcome recorded in this test, key = Cc1cc(C)c(C)c(S(=O)(=O)NCc2ccc(C(=O)N3CCN(C)CC3)cc2)c1C
inactive

====

target.system: Ataxin-2 (Homo sapiens) (UniProt Q99700)
test.summary: qHTS for Inhibitors of ATXN expression.
Format: functional
In all, about 400,000 compounds went through this assay and about 2,100 (0.53%) were called active. Not shown: some 14% with an inconclusive outcome. No rule for the calls is given here. For the sample, actives were picked, then their nearest neighbours and some compounds at random.
Your response should consist of one outcome taken from Y = active, N = inactive

Some entries whose results are on file:
c1cc2c(cc1C1CCCCC1)c1c3n2CCCNC3CCC1 (stereo not given) = Y
CCOC(=O)c1cc2c(=O)n3ccccc3nc2n(C)/c1=N\C(=O)c1c(-c2c(F)cccc2Cl)noc1C = N
CCO/C=C1/C(=O)N(c2ccccc2OC)C(=O)c2ccccc21 = N
CC[C@]1(c2ccccc2OC)ON(c2ccccc2C(F)(F)F)C1=O = Y

Now turn to the next compound.
# outcome recorded in this test, key = COc1ccccc1N1C(=O)C2C(C(=O)c3ccccc3)=NN(c3ccccc3OC)C2C1=O (stereo not given)
N

====

target.system: Ataxin-2 (Homo sapiens) (UniProt Q99700)
test.summary: qHTS for Inhibitors of ATXN expression.
Assay type: functional
Screen size: about 400,000 compounds; about 2,100 (0.53%) were called active. Inconclusive results (about 14%) are left out. How the calls were made is not given here. The entries come from a sample that favours actives as a whole.
Your response should consist of one outcome taken from yes = active, no = inactive

Some entries whose results are on file:
COc1cc(C=C2C(=O)C=CC2=O)ccc1O = yes
COc1cc(/C=C2\CCc3c2nc2ccccc2c3C(=O)O)cc(OC)c1OC = no
COc1cc(/C=C2\C(=N)N3N=C(CC(=O)N4CCCCC4)SC3=NC2=O)ccc1O = no
COc1cc(/C=C/c2nc3ccccc3s2)cc(OC)c1O = no
COc1cc(/C=C/C(=O)c2ccc3c(c2)OCO3)cc(Cl)c1O = no

Now turn to the next molecule.
# outcome recorded in this test, key = COc1cc2ccc(=O)oc2c(O)c1O
no

====

target.system: Ataxin-2 (Homo sapiens) (UniProt Q99700)
test.summary: qHTS for Inhibitors of ATXN expression.
Type: functional
About 2,100 (0.53%) of roughly 400,000 compounds were called active. Another 14% or so got no clear call; they are omitted. How the calls were made is not given here. The sample holds actives, similar compounds and a random draw of the others, so the mix is not that of the screen.
Your response should consist of one outcome taken from active, inactive

Some entries whose results are on file:
O=c1cc(-c2ccccc2)oc2ccc(O)cc12 = inactive
CCCCn1c(N)c(N(CCOC)C(=O)CN2c3ccccc3CC2C)c(=O)[nH]c1=O (stereo unspecified) = inactive
C=CCC[C@H](Cc1ccc(F)cc1)C(=O)OC[C@H](Cc1c[nH]c2ccccc12)NC(=O)[C@@H](CC=C)CC(=O)NCCO = active
CCN1/C(=C/C=C/c2oc3ccc(-c4ccccc4)cc3[n+]2CC)Oc2ccc(-c3ccccc3)cc21 = active
O=C(Cn1ncc(Cl)c(Cl)c1=O)c1ccc2c(c1)OCCO2 = active

# outcome recorded in this test, key = CC(=O)Cn1c(=O)oc2ccccc21
inactive

# outcome recorded in this test, key = Cc1ccc(SCc2c(C(=O)N/N=C/c3ccoc3)nnn2-c2nonc2N)cc1
inactive

# outcome recorded in this test, key = Cn1c2ccccc2c(=O)c2c(=O)n(C3CCCCCC3)c(C3CCCCC3)nc21
inactive

# outcome recorded in this test, key = COc1ccncc1-c1ccc(C2=CC(=O)CC(C)(C)C2=O)cc1
active

# outcome recorded in this test, key = C=C(C)c1nc(Oc2ccccc2)nc(Oc2ccccc2)n1
active

# outcome recorded in this test, key = CC(=O)/C=C/n1c(=S)oc2ccccc21
active

# outcome recorded in this test, key = O=C(Cn1ncc(Cl)c(Cl)c1=O)Nc1ccc2c(c1)OCO2
active

# outcome recorded in this test, key = CN(C)c1ccc(/C=N/NC(=O)c2ccc(Cn3cc(Br)cn3)o2)cc1
inactive

# outcome recorded in this test, key = CCN(CC)c1ccc(C=C(c2nnnn2-c2ccccc2)c2nnnn2-c2ccccc2)cc1
inactive

# outcome recorded in this test, key = COc1ccc(C(=O)/C=C2\Sc3ccccc3N2C)cc1
inactive

# outcome recorded in this test, key = N#Cc1c2ccc(OCC(N)=O)cc2n2ccccc12
inactive

# outcome recorded in this test, key = CCN(C(=O)COC(=O)c1cccc(S(=O)(=O)N(C)C)c1)c1c(N)n(Cc2ccccc2)c(=O)[nH]c1=O
inactive

# outcome recorded in this test, key = O=C(CCn1c(=S)oc2ccccc21)Nc1ccccc1F
inactive

# outcome recorded in this test, key = O=c1oc(-c2ccccc2)cc(Cl)c1Cl
active

# outcome recorded in this test, key = C=CC[C@@H](CC(=O)N[C@H](CO)Cc1ccccc1)C(=O)N[C@H](COC(=O)[C@@H](CC=C)Cc1ccc(F)cc1)Cc1c[nH]c2ccccc12
active

# outcome recorded in this test, key = COC(=O)c1ccc(NS(=O)(=O)c2ccc3c(c2)n(C)c(=O)n3C)cc1
inactive
